Target: HCV Core 134-171-TT peptide (ALRZ-9 peptide) (HCV-1)
Assay: SPR, captured mAb;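 note: Anti-HCV Core mAbs from hybridoma supernatants held on a rabbit anti-mouse IgG CM5 surface, peptide flowed over 3 min then 4 min dissociation, duplicate concentrations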
Kd for assorted binders
quantity kind: Kd (pM)

| binder | numeric readout |
| --- | --- |
| HCV 208B-547 (antibody, V domains shown) VH: QVQLQQSGAELAKPGASVKMSCKASGYTFTSNKMHWAKQRPGQGLEWIGYIDPSSGYTEYNQKIKDKATLTADKSSSTAYMQLSSLTSEDSAVYYCTNFAYWGQGTLVTVSA VL: EVVLTQSPAITAASLGQKVTITCRASSSVSYMHWYRQKSGTSPQPWIYEISTLASGVPTRFRASGSGTSYSLTISSMEAEDAAIYYCQQWNYPLTFGAGTKLELKR | 3200 |
| HCV 208B-560 (antibody, V domains shown) VH: EVQLQQSGPELEKPGASVKISCKTSGYTFTEYAMHWVKQSHGMSLEWIGGINPSNGNAIYNQIFKDKATLTVDRSSSTAYMGLRSLTFGDSGVYFCVRRQLDFFDYWGQGASLTVSS VL: DIVVTQSPASLAVSLGQRATISCRASQSVSTSRYSYLHWYQQKPGQPPKLLIKYASNLESGVPARFSGSGSGTDFTLNIHPVGEEDTATYYCQHSWEFPFTFGSGTKLEIKR | 230 |
| HCV 208B-612 (antibody, V domains shown) VH: EVQLQQSGPELVKPGASVKMSCKASGYRFTSYVMHWVRQKPGQGLEWIGYIDPHNDDTKYSEKFRGKATLTSDKSSTTAYMELSSLTSEDSAVYYCVRYSYDRDYSPMDYWGQGTSVTVSS VL: QIVLTQSPTLMSASPGEKVTMTCSASSTVTYIYWYQQKPGSSPRLWMYDTFNLVSGVPARFSGSRSGTSYFLTISSMEGEDAATYYCQQYSDSPYTFGGGTKLEIKR | 350 |
